Catalogue of Ratio IC50 readings, one per entry.
Target: Glutamate NMDA receptor (Rattus norvegicus) (UniProt P35439+Q00959+Q00960+Q00961+Q62645+Q8VHN2+Q9R1M7)
Experiment: Ratio of IC50 for displacement of [3H]-MK-801 from rat cortical membranes NMDA receptor in presence of 30 uM spermine to IC50 for displacement of [3H]-MK-801 from rat cortical membranes NMDA receptor in absence of 30 spermine
Lab note: jot down the number only; don't add units.

Consider the worked cases shown below.
{"columns": ["item smiles", "measured endpoint", "data value"],
 "data": [
  ["N=C(NCCCO)c1ccc(N2CCCN(c3ccc(/C(N)=N/CCCO)cc3)CC2)cc1", "Ratio IC50", 9.72],
  ["N=C(N)NCCCCNC(=N)N", "Ratio IC50", 33.6]
]}

I am curious: what Ratio IC50 value has been reported for c1cc(N2CCCN(c3ccc(C4=NCCN4)cc3)CC2)ccc1C1=NCCN1 ?
30.1

Param item = N=C(N)c1ccc(C(=O)Nc2cccc(NC(=O)c3ccc(C(=N)N)cc3)n2)cc1 ; retrieve measured Ratio IC50.
1.85

What does the data say about its Ratio IC50? Entry: CCCCNC(=N)c1ccc(N2CCCN(c3ccc(C(=N)NCCCC)cc3)CC2)cc1
11.2

Name the recorded Ratio IC50 for N=C(N)c1ccc(C(=O)NCCCCCCNC(=O)c2ccc(C(=N)N)cc2)cc1 .
4.59

Requested field: Ratio IC50. Item: CCN(CCN(CC)c1ccc(C(=N)N)cc1)c1ccc(C(=N)N)cc1
11.8

Record request: Ratio IC50 value, item N=C(N)c1ccc(NC(=O)CCCC(=O)Nc2ccc(C(=N)N)cc2)cc1
2.81

Given CC(C)(C)/N=C(\N)c1ccc(N2CCCN(c3ccc(/C(N)=N/C(C)(C)C)cc3)CC2)cc1 , state its recorded Ratio IC50.
16.8

// returns reported Ratio IC50 for input c1cc(N2CCN(c3ccc(C4=NCCCN4)cc3)CC2)ccc1C1=NCCCN1
13.6

* * *

Target: Glutamate NMDA receptor
Test: Displacement of [3H]-MK-801 from rat cortical membranes NMDA receptor by beta counting analysis in absence of spermine
Readings of pIC50 for the listed compounds
Please keep in mind that pIC50 is minus log10 of the molar concentration; only the number is needed.

{"columns": ["compound", "pIC50"],
 "data": [
  ["N=C(N)c1ccc(-c2ccc(-c3ccc(C(=N)N)s3)s2)s1", 5.27],
  ["N=C(N)c1ccc(OCCCOc2ccc(C(=N)N)cc2)cc1 [PROPAMIDINE]", 5.26],
  ["N=C(NC1CCCC1)c1ccc(N2CCCN(c3ccc(C(=N)NC4CCCC4)cc3)CC2)cc1", 5.09],
  ["N=C(N)c1ccc(NC(=O)c2ccc(C(=O)Nc3ccc(C(=N)N)cc3)cc2)cc1", 4.27],
  ["CN(CCN(C)c1ccc(C(=N)N)cc1)c1ccc(C(=N)N)cc1", 5.57]
]}

Entry N=C(N)c1ccc(NCCCCNc2ccc(C(=N)N)cc2)cc1 : reported pIC50 = ?
5.34

Tell me the measured pIC50 of CN(CCNc1ccc(C(=N)N)cc1)c1ccc(C(=N)N)cc1 , please.
5.50

What value of pIC50 has been reported for the following compound? N=C(N)c1ccc(NCCCCCCNc2ccc(C(=N)N)cc2)cc1
5.36

Consider the compound CC(C)NC(=N)c1ccc(NC(=O)c2ccc(C(=O)Nc3ccc(C(=N)NC(C)C)cc3)o2)cc1 and give its measured pIC50.
4.97

Suppose we examine the compound CN(CCCN(C)c1ccc(C(=N)N)cc1)c1ccc(C(=N)N)cc1 ; what pIC50 value has been reported?
5.74
